Answer each item with its documented pIC50.
- Study target: Wee1 (Homo sapiens (Human), UniProt P30291)
- Sequence (P30291 whole entry): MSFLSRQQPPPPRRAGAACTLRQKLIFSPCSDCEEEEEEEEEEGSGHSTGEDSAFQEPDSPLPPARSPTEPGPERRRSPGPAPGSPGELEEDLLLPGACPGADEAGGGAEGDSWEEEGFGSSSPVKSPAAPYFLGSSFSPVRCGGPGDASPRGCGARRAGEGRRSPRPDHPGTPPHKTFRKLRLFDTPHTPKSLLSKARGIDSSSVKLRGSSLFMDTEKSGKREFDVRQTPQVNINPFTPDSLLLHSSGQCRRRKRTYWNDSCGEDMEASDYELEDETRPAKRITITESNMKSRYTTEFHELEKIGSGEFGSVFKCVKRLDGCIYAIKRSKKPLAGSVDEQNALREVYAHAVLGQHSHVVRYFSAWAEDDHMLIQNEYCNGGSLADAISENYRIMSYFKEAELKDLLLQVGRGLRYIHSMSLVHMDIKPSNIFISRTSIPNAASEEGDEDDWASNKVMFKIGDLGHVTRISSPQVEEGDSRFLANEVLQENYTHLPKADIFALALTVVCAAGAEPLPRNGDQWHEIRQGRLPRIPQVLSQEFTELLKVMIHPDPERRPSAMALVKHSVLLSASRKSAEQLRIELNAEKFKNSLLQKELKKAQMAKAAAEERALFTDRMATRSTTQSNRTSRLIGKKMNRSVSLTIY
- Assay remarks: Wee1 enzyme catalysis assay (ATP-Glo Max kinase luminescence detection kit)
- Assay type: biochemical
- Assay context: Wee1 enzymatic activity, 10 μM ATP, Poly (Lys, Tyr) substrate, 30° C. for 50 minutes
Give bare numbers, as −log10 of the molar value.

[
  {
    "Molecule": "CN1CCOc2ccc(Nc3ncc4c(=O)n5n(c4n3)-c3ccc4c(n3)N(CCC/C=C\\C5)C(=O)CO4)cc2C1",
    "pIC50": 8.09
  }
]

Give pIC50 for each listed item.
1. CC(C)N1CCC(n2ccc3cc(Nc4ncc5c(=O)n6n(c5n4)-c4ccc5c(n4)N(CCC/C=C\C6)C(=O)CO5)ccc32)CC1 [Compound 3-7-15]
2. CN1CCN(c2ccc(Nc3ncc4c(=O)n5n(c4n3)-c3ccc4c(n3)N(CCC/C=C\C5)C(=O)CO4)cc2)CC1
3. CN1Cc2cc(Nc3ncc4c(=O)n5n(c4n3)-c3cccc(n3)OCCCC/C=C\C5)ccc2C2(CC2)C1

# output
[8.10, 7.89, 7.99]

* * *

- Study target: Wee1 (Homo sapiens (Human), UniProt P30291)
- Assay remarks: Wee1 enzyme catalysis assay (ATP-Glo Max kinase luminescence detection kit)
- Format: biochemical
- Assay context: Wee1 enzymatic activity, 10 μM ATP, Poly (Lys, Tyr) substrate, 30° C. for 50 minutes
pIC50: −log10 of the molar value.
Quick rule for you: pIC50 at 8 or higher means 1, lower means -1.

Answered examples (2):
[
  {
    "Smi": "COc1cc(Nc2ncc3c(=O)n4n(c3n2)-c2ccc3c(n2)N(CCC/C=C\\C4)C(=O)CO3)ccc1N1CCN(C)CC1",
    "Assigned category": 1
  },
  {
    "Smi": "CN1Cc2cc(Nc3ncc4c(=O)n5n(c4n3)-c3ccc4c(n3)N(CCO4)C(=O)CC/C=C\\C5)ccc2C2(CC2)C1",
    "Assigned category": 1
  }
]

Could you now consider this next molecule?
# input For this molecule, is measured pIC50 8 or higher? CN1CCN(c2ccc(Nc3ncc4c(=O)n5n(c4n3)-c3cccc(n3)OCCOC/C=C/C5)cc2)CC1
# output -1

* * *

- Study target: Wee1 (Homo sapiens (Human), UniProt P30291)
- Assay remarks: Wee1 enzyme catalysis assay (ATP-Glo Max kinase luminescence detection kit)
- Format: biochemical
- Assay context: Wee1 enzymatic activity, 10 μM ATP, Poly (Lys, Tyr) substrate, 30° C. for 50 minutes
- Experimental: In the present disclosure, Wee1 enzyme catalysis assay was carried out using the ATP-Glo Max kinase luminescence detection kit (Promega). Kinase activity was assessed by quantitative detection of the amount of ATP retained in the solution following the kinase reaction. […] After the enzymatic reaction, 50 μL of ATP-Glo Max kinase luminescence detection assay solution (Promega) was added and incubated for 15 minutes at room temperature. The luminescent signal was measured using a microplate reader. […]
Test readout: pIC50
Give bare numbers, as −log10 of the molar value.

Please review the following examples before continuing.
[
  {
    "Compound": "CN1CCC(n2ccc3cc(Nc4ncc5c(=O)n6n(c5n4)-c4ccc5c(n4)N(CCC/C=C\\C6)C(=O)CO5)ccc32)CC1 [Compound 3-7-5]",
    "pIC50": 8.41
  },
  {
    "Compound": "CN1Cc2cc(Nc3ncc4c(=O)n5n(c4n3)-c3ccc4c(n3)N(CCCC/C=C/C5)C(=O)CO4)ccc2C2(CC2)C1 [Compound 3-2-1]",
    "pIC50": 7.68
  },
  {
    "Compound": "CN1CCN(c2ccc(Nc3ncc4c(=O)n5n(c4n3)-c3cccc(n3)OCC/C=C\\C5)cc2CO)CC1 [Compound 1-1-5]",
    "pIC50": 8.21
  }
]

# input What value of pIC50 has been recorded for this entry: CC(C)N1CCC(n2ccc3cc(Nc4ncc5c(=O)n6n(c5n4)-c4ccc5c(n4)N(CCC/C=C\C6)C(=O)CO5)ccc32)CC1 [Compound 3-7-7]
# output 8.18

* * *

Answer each item with its documented IC50.
- Study target: Wee1 (Homo sapiens (Human))
- Assay remarks: Cell activity of Wee1 by p-CDK1Y15 ELISA assay in WiDr cells
- Assay type: cell-based
- Assay context: amount of p-CDK1Y15, human colon adenocarcinoma cell line WiDr, 24 hours incubation
- Description: In the present disclosure, cellular assays were used to assess the biological activity of the compound. This assay was conducted using the human colon adenocarcinoma cell line WiDr. The activity of a specific Wee1 inhibitor was evaluated using p-CDK1Y15 ELISA assay method. The detailed assay method is described as follows: WiDr cells were cultured in Dulbecco's Modified Eagle's medium containing 10% FBS at 37° C. and 5% CO2. […] The optical density was measured using a spectrophotometer. […]
Numbers only, in nM.

[
  {
    "Smi": "CN1CCN(c2cc(Nc3ncc4c(=O)n5n(c4n3)-c3ccc4c(n3)N(CCC/C=C\\C5)C(=O)CO4)cc3c2ccn3C)CC1",
    "U": "nM",
    "IC50": 31.4
  },
  {
    "Smi": "CN1CCC(c2c[nH]c3cc(Nc4ncc5c(=O)n6n(c5n4)-c4ccc5c(n4)N(CCC/C=C\\C6)C(=O)CO5)ccc23)CC1",
    "U": "nM",
    "IC50": 114
  },
  {
    "Smi": "COc1cc(Nc2ncc3c(=O)n4n(c3n2)-c2ccc3c(n2)N(CCC/C=C\\C4)C(=O)CO3)cc(N2CCN(C)CC2)c1",
    "U": "nM",
    "IC50": 68.8
  },
  {
    "Smi": "CN1CCC(n2ccc3cc(Nc4ncc5c(=O)n6n(c5n4)-c4ccc5c(n4)N(CCC/C=C\\C6)C(=O)CO5)ccc32)CC1",
    "U": "nM",
    "IC50": 38.8
  }
]

Attention now shifts to the item below.
# input # returns recorded IC50 (system: Wee1 (Homo sapiens (Human))) for C=CCCCCN1C(=O)COc2ccc(-n3c4nc(SC)ncc4c(=O)n3CC=C)nc21
# output 336

* * *

Answer each item with its documented IC50.
- Study target: Wee1 (Homo sapiens (Human))
- Assay remarks: Cell activity of Wee1 by p-CDK1Y15 ELISA assay in WiDr cells
- Assay type: cell-based
- Assay context: amount of p-CDK1Y15, human colon adenocarcinoma cell line WiDr, 24 hours incubation
One number for each entry, in µM.

Please review the following examples before continuing.
[
  {
    "Smi": "CN1Cc2cc(Nc3ncc4c(=O)n5n(c4n3)-c3ccc4c(n3)N(CCC/C=C\\C5)C(=O)CO4)ccc2C2(CC2)C1",
    "Study target": "Wee1 (Homo sapiens (Human))",
    "U": "µM",
    "IC50": 0.139
  },
  {
    "Smi": "COc1cc(Nc2ncc3c(=O)n4n(c3n2)-c2ccc3c(n2)N(CCC/C=C\\C4)C(=O)CO3)ccc1N1CCN(C)CC1",
    "Study target": "Wee1 (Homo sapiens (Human))",
    "U": "µM",
    "IC50": 0.114
  }
]

Attention now shifts to the item below.
# input What value of IC50 has been recorded for this entry: CC(C)(C)OC(=O)N1CCC(n2ccc3cc(Nc4ncc5c(=O)n6n(c5n4)-c4ccc5c(n4)N(CCC/C=C\C6)C(=O)CO5)ccc32)CC1
# output 0.0806

* * *

Answer each item with its documented pIC50.
- Study target: Wee1 (Homo sapiens (Human))
- Assay remarks: Wee1 enzyme catalysis assay (ATP-Glo Max kinase luminescence detection kit)
- Format: biochemical
- Assay context: Wee1 enzymatic activity, 10 μM ATP, Poly (Lys, Tyr) substrate, 30° C. for 50 minutes
Give bare numbers, as −log10 of the molar value.

[
  {
    "Compound": "CC(C)(C)OC(=O)N1Cc2cc(Nc3ncc4c(=O)n5n(c4n3)-c3ccc4c(n3)N(CCC/C=C\\C5)C(=O)CO4)ccc2C(C)(C)C1",
    "pIC50": 8.21
  }
]

Give pIC50 for each listed item.
1. COc1cc(Nc2ncc3c(=O)n4n(c3n2)-c2ccc3c(n2)N(CCC/C=C\C4)C(=O)CO3)ccc1N1CCN(C)C(C)C1 (stereo not drawn)
2. CN1C[C@@H]2C[C@H]1CN2c1ccc(Nc2ncc3c(=O)n4n(c3n2)-c2ccc3c(n2)N(CCC/C=C\C4)C(=O)CO3)cc1
3. CC(=O)N1CCCCC=CCn2c(=O)c3cnc(Nc4ccc(N5CCN(C)CC5)cc4)nc3n2-c2cccc1n2 [Compound 2-1-2]
4. COC(=O)N1CCC(n2ccc3cc(Nc4ncc5c(=O)n6n(c5n4)-c4ccc5c(n4)N(CCC/C=C\C6)C(=O)CO5)ccc32)CC1
5. CN1Cc2cc(Nc3ncc4c(=O)n5n(c4n3)-c3ccc4c(c3)N(CCC/C=C\C5)C(=O)CO4)ccc2C2(CC2)C1

# output
1: 8.32; 2: 8.07; 3: 7.20; 4: 7.44; 5: 8.29
